Measured viability accompanies every entry in the list below.
Assay: growth suppression of PTEN-deleted HCT116, pilot screen, cell-based, HCT116 clonal line, CellTiter-Glo (AID 824);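 also: 0% = 20 µM Hyamine control and 100% = vehicle cell control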
Details: 60 h, at 10 µM, active compounds read low
Results filed as inconclusive are left out.
// units = %; emit number, no label

For orientation, consider the following solved cases.
>  <Compound>
CCN(CC)c1ccc(NC(=O)CN2C(=O)CSc3ncccc32)c(C)c1

>  <Value units>
%

>  <viability>
66

$$$$
>  <Compound>
CCOc1ccc(Br)cc1/C=N/O

>  <Value units>
%

>  <viability>
87.1

$$$$
>  <Compound>
Cc1cc(C(=O)NCc2ccc3c(c2)OCO3)n(-c2ccccc2)n1

>  <Value units>
%

>  <viability>
96.3

$$$$

Asked: Would you mind telling me what viability value was observed for Cc1nc2sc(C(c3ccco3)N3CCC(C)CC3)c(O)n2n1 (configuration not stated) ?
Given back: 103

Asked: Would you mind telling me what viability value was observed for `CCOC(=O)CSc1nc2sc(C(=O)O)c(C)c2c(=O)[nH]1` ?
Given back: 103

Asked: Would you mind telling me what viability value was observed for `Cc1cc(N=CC2=C(O)CC(C)(C)CC2=O)no1` ?
Given back: 104

Asked: Would you mind telling me what viability value was observed for COc1ccc(Cl)cc1NC(=O)C1CCCO1 (configuration not stated) ?
Given back: 94.7

Asked: Would you mind telling me what viability value was observed for O=C(O)CC1C(=O)NCCN1CCCc1ccccc1 (configuration not stated) ?
Given back: 97.9

Asked: Would you mind telling me what viability value was observed for `N#CC1=C(O)CCCn2c1nc1ccccc1c2=O` ?
Given back: 97

Asked: Would you mind telling me what viability value was observed for `Cn1c(C(=O)NC2CCCC2)cc2c(=O)n(C)c3ccccc3c21` ?
Given back: 87.4

Asked: Would you mind telling me what viability value was observed for O=C1c2ccccc2C(O)N1c1ccc(Cl)cc1 (configuration not stated) ?
Given back: 95.5

Asked: Would you mind telling me what viability value was observed for `CN(Cc1ccccc1)C(=O)CCS(=O)(=O)c1ccc2c(c1)n(C)c(=O)c(=O)n2C` ?
Given back: 100

These entries and their values trace back to PubChem BioAssay.
